Tested On: IKZF1-HiBiT (Homo sapiens, UniProt Q13422+Q96SW2)
Construct: expressed in transfected cells; host or cells: HEK293T
Sequence (Q13422 whole entry): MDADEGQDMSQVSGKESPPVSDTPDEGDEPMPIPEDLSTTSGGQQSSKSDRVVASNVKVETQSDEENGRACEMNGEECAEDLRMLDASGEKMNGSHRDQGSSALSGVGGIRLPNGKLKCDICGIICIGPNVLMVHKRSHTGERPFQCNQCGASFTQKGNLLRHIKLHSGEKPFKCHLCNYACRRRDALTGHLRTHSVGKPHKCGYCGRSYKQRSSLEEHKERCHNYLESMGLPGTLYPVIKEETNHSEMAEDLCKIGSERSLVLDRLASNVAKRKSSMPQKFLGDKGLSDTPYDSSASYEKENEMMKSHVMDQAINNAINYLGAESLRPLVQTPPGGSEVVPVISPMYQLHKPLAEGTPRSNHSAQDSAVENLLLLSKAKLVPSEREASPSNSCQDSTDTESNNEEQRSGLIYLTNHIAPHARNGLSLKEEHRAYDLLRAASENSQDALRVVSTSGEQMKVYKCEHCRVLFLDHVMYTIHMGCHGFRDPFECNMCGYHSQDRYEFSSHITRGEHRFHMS
Sequence (Q96SW2 whole entry): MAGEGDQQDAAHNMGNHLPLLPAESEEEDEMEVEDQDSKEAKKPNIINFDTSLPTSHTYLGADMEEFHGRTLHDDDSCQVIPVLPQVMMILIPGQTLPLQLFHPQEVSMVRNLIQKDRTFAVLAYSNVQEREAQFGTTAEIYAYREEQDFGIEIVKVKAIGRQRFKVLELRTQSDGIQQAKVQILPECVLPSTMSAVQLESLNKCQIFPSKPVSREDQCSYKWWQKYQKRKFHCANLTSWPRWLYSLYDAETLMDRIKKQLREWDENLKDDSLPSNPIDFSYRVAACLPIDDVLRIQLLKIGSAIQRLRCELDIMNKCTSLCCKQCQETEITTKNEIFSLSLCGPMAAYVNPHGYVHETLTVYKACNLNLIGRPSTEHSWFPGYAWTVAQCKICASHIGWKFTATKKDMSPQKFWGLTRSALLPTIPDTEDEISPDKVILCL
Sequence (Q16531 whole entry partner): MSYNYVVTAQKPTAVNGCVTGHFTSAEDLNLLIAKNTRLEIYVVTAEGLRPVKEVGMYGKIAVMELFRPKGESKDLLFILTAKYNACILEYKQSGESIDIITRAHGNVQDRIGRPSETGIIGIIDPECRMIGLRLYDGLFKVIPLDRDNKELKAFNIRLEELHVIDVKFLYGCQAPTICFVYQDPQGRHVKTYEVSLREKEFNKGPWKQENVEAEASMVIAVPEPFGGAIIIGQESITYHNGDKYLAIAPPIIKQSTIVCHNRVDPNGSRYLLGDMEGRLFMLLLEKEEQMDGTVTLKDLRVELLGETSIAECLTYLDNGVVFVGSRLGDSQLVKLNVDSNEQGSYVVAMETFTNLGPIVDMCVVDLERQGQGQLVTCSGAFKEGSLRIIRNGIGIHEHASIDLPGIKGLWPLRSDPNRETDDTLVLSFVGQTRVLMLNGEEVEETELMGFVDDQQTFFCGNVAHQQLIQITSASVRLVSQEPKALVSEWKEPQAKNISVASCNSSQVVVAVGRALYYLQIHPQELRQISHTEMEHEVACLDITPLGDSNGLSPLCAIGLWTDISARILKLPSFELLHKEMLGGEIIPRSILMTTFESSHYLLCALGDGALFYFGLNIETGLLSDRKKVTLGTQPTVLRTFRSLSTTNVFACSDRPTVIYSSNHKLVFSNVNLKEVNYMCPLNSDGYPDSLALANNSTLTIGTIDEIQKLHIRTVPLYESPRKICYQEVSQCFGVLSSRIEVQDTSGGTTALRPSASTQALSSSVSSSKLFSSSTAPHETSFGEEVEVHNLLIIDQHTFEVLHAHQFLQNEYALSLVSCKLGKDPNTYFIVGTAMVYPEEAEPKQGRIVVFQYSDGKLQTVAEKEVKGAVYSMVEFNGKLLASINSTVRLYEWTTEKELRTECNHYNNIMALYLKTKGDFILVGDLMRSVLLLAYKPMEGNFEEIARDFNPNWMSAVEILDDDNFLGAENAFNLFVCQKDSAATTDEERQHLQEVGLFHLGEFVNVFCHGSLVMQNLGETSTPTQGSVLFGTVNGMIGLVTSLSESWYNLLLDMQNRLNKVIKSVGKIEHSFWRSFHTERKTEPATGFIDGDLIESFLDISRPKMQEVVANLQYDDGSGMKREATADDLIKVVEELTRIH
Assay: Quantitative degradation assay using the HiBiT system (HEK293T)
Format: cell-based
Experimental Context: HEK-293T; HEK293T IKZF1-HiBiT, 24 h; read-out: maximal degradation (Dmax) on IKZF1
Measured Metric: Dmax (%)
Express the result in % but write the number alone.

### Prompt # input molecule: CN1CCN(Cc2cccc(C(=O)NC3CCC(=O)NC3=O)c2)CC1 (stereo not shown) ; wanted: its Dmax
### Response 89.4

### Prompt Quick one: Dmax for Cc1nc2cccc(N)c2c(=O)n1C1CCC(=O)NC1=O (stereo not shown) [Avadomide, reference compound] ?
### Response 80.4

### Prompt Item CN1CCN(Cc2cccc(C(=O)NC3CCC(=O)NC3=O)c2F)C(=O)C1 (stereo not shown) has what recorded Dmax?
### Response 90.3

### Prompt Consider the molecule shown here: Nc1cccc2c1C(=O)N(C1CCC(=O)NC1=O)C2=O (stereo not shown) [Pomalidomide, reference compound] What is its recorded Dmax?
### Response 76.2
